Target: recombinant human B1 receptors (Homo sapiens, UniProt P46663)
Construct: host or cells: CHO (CHO-B1)
Sequence (P46663 whole entry): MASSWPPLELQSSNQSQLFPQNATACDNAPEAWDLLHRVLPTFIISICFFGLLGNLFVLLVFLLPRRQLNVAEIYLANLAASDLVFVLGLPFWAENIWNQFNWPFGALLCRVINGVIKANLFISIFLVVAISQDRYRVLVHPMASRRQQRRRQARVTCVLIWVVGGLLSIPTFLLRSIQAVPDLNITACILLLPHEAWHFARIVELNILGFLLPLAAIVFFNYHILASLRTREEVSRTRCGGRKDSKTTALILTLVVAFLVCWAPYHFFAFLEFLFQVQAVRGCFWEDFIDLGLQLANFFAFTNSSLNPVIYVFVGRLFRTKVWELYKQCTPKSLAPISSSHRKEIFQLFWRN
Test: Functional assay: antagonist potency by cytosolic calcium measurement (plate reader fluorimeter) in CHO-B1 cells, agonist LysDABK
Type: cell-based
Conditions: CHO-B1 cells, inhibition of LysDABK (EC80)-evoked [Ca2+]i elevation; read-out: B1 func.
pIC50: −log10 of the molar value.
Each record here notes measured pIC50.
Parameter: pIC50

Compound: COc1cc(C(=O)NC2(C(=O)NCc3ccc(-n4c(-c5noc(=O)n5C)c(Cl)c5ccccc54)cc3)CC2)on1
Assay system: recombinant human B1 receptors (Homo sapiens, UniProt P46663)
Recorded value: > 7.70
--
Compound: Cc1nc(-c2c(Cl)c3ccccc3n2-c2ccc(CNC(=O)C3(NC(=O)c4scnc4C)CC3)cc2)no1
Assay system: recombinant human B1 receptors (Homo sapiens, UniProt P46663)
Recorded value: 7.00 to 7.70
--
Compound: Cc1nc(-c2c(Cl)c3ccccc3n2-c2ccc(CNC(=O)C3(NC(=O)c4cccnc4)CC3)cc2)no1
Assay system: recombinant human B1 receptors (Homo sapiens, UniProt P46663)
Recorded value: > 7.70
--
Compound: COc1cc(C(=O)NC2(C(=O)NCc3ccc(-n4c(-c5nc(C)no5)c(Cl)c5ccccc54)cc3)CC2)on1
Assay system: recombinant human B1 receptors (Homo sapiens, UniProt P46663)
Recorded value: > 7.70
--
Compound: Cc1ncc(C(=O)NC2(C(=O)NCc3ccc(-n4c(-c5noc(C)n5)c(Cl)c5ccccc54)cc3)CC2)cn1
Assay system: recombinant human B1 receptors (Homo sapiens, UniProt P46663)
Recorded value: > 7.70
--
Compound: COc1cc(C(=O)NC2(C(=O)NCc3ccc(-n4c(-c5nnn(C)n5)c(Cl)c5cc(Cl)ccc54)cc3)CC2)on1
Assay system: recombinant human B1 receptors (Homo sapiens, UniProt P46663)
Recorded value: > 7.70
--
Compound: COc1ccc2c(c1)cc(-c1nc(C)no1)n2-c1ccc(CNC(=O)C2(NC(=O)c3cccnc3F)CC2)cc1
Assay system: recombinant human B1 receptors (Homo sapiens, UniProt P46663)
Recorded value: 7.00 to 7.70
--
Compound: COc1cc(C(=O)NC2(C(=O)NCc3ccc(-n4c(-c5noc(C)n5)c(F)c5cc(F)ccc54)cc3)CC2)on1
Assay system: recombinant human B1 receptors (Homo sapiens, UniProt P46663)
Recorded value: > 7.70
--
Compound: COc1ccc2c(c1)cc(-c1nc(C)no1)n2-c1ccc(CNC(=O)C2(NC(=O)c3cc(OC)no3)CC2)cc1
Assay system: recombinant human B1 receptors (Homo sapiens, UniProt P46663)
Recorded value: > 7.70
--
Compound: COC(=O)c1c(Cl)c2ccccc2n1-c1ccc(CNC(=O)C2(NC(=O)c3cc(OC)no3)CC2)cc1
Assay system: recombinant human B1 receptors (Homo sapiens, UniProt P46663)
Recorded value: > 7.70
--
Compound: CCOC(=O)c1c(Cl)c2ccccc2n1-c1ccc(CNC(=O)C2(NC(=O)c3cc(OC)no3)CC2)cc1
Assay system: recombinant human B1 receptors (Homo sapiens, UniProt P46663)
Recorded value: 7.00 to 7.70
--
Compound: Cc1cnc(C(=O)NC2(C(=O)NCc3ccc(-n4c(-c5noc(C)n5)c(Cl)c5ccccc54)cc3)CC2)cn1
Assay system: recombinant human B1 receptors (Homo sapiens, UniProt P46663)
Recorded value: 7.00 to 7.70
--
Compound: Cc1nc(-c2c(Cl)c3cc(Cl)ccc3n2-c2ccc(CNC(=O)C3(NC(=O)C(F)(F)F)CC3)cc2)no1
Assay system: recombinant human B1 receptors (Homo sapiens, UniProt P46663)
Recorded value: > 7.70
--
Compound: Cc1nc(-c2c(Cl)c3ccccc3n2-c2ccc(CNC(=O)C3(NC(=O)CC(F)(F)F)CC3)cc2)no1
Assay system: recombinant human B1 receptors (Homo sapiens, UniProt P46663)
Recorded value: > 7.70
--
Compound: COc1cc(C(=O)NC2(C(=O)NCc3ccc(-n4c(-c5nc(C)no5)cc5ccccc54)cn3)CC2)on1
Assay system: recombinant human B1 receptors (Homo sapiens, UniProt P46663)
Recorded value: 6.30 to 7.00
--
Compound: Cc1cc(C(=O)NC2(C(=O)NCc3ccc(-n4c(-c5noc(C)n5)c(Cl)c5cc(F)ccc54)cc3)CC2)no1
Assay system: recombinant human B1 receptors (Homo sapiens, UniProt P46663)
Recorded value: > 7.70
--
Compound: COc1cc(C(=O)NC2(C(=O)NCc3ccc(-n4c(C#N)cc5cc(F)ccc54)cc3)CC2)on1
Assay system: recombinant human B1 receptors (Homo sapiens, UniProt P46663)
Recorded value: > 7.70
--
Compound: COc1cc(C(=O)NC2(C(=O)NCc3ccc(-n4c(C(N)=O)c(Cl)c5ccccc54)cc3)CC2)on1
Assay system: recombinant human B1 receptors (Homo sapiens, UniProt P46663)
Recorded value: > 7.70
--
Compound: Cc1nc(-c2c(Cl)c3ccccc3n2-c2ccc([C@@H](C)NC(=O)C3(NC(=O)C(F)(F)F)CC3)c(F)c2)no1
Assay system: recombinant human B1 receptors (Homo sapiens, UniProt P46663)
Recorded value: > 7.70
--
Compound: Cc1nnc(-c2c(Cl)c3ccccc3n2-c2ccc(CNC(=O)C3(NC(=O)c4cncnc4)CC3)cc2)o1
Assay system: recombinant human B1 receptors (Homo sapiens, UniProt P46663)
Recorded value: > 7.70
--
Compound: CC(NC(=O)C1(NC(=O)C(F)(F)F)CC1)c1ccc(-n2c(C(=O)N3CCCC3)c(Cl)c3ccccc32)cc1 (stereo not shown)
Assay system: recombinant human B1 receptors (Homo sapiens, UniProt P46663)
Recorded value: 6.30 to 7.00
--
Compound: Cc1noc(-c2cc3ccccc3n2-c2ccc(CNC(=O)C3(NC(=O)c4cncc(C(F)(F)F)c4)CC3)cc2)n1
Assay system: recombinant human B1 receptors (Homo sapiens, UniProt P46663)
Recorded value: > 7.70
--
Compound: COc1ccc2c(c1)cc(-c1nnc(C)o1)n2-c1ccc(CNC(=O)C2(NC(=O)c3cncc(C(F)(F)F)c3)CC2)cc1
Assay system: recombinant human B1 receptors (Homo sapiens, UniProt P46663)
Recorded value: > 7.70
--
Compound: Cc1noc(-c2c(Cl)c3ccccc3n2-c2ccc(CNC(=O)C3(NC(=O)c4cncc(C(F)(F)F)c4)CC3)cc2)n1
Assay system: recombinant human B1 receptors (Homo sapiens, UniProt P46663)
Recorded value: > 7.70
--
Compound: Cc1noc(-c2c(Cl)c3ccccc3n2-c2ccc(CNC(=O)C3(NC(=O)C(F)(F)F)CC3)cc2)n1
Assay system: recombinant human B1 receptors (Homo sapiens, UniProt P46663)
Recorded value: > 7.70
--
Compound: COc1cc(C(=O)NC2(C(=O)NCc3ccc(-n4c(-c5noc(C)n5)c(C)c5cc(F)ccc54)cc3)CC2)on1
Assay system: recombinant human B1 receptors (Homo sapiens, UniProt P46663)
Recorded value: > 7.70
--
Compound: COc1cccc(C(=O)NC2(C(=O)NCc3ccc(-n4c(-c5noc(C)n5)c(Cl)c5ccccc54)cc3)CC2)c1
Assay system: recombinant human B1 receptors (Homo sapiens, UniProt P46663)
Recorded value: 7.00 to 7.70
--
Compound: Cc1nc(-c2c(Cl)c3ccccc3n2-c2ccc([C@@H](C)NC(=O)C3(NC(=O)C(F)(F)F)CC3)cc2)no1
Assay system: recombinant human B1 receptors (Homo sapiens, UniProt P46663)
Recorded value: > 7.70
